Target: SARS-CoV-2 full length spike protein (wild type), expressed on the surface of transiently transfected CHO … (SARS-CoV-2, UniProt P0DTC2 14-1273)
QUANTITY_MEASURED: median fluorescence intensity, fold over isotype control (fold over isotype)
Expressed in fold over isotype, but write only the number.

Some binders with recorded median fluorescence intensity, fold over isotype control:
BINDER: antibody 475 (antibody, V domains shown) VH: QVQLVESGGGVVQPGRSLRLSCAASGFTFSSYAMHWVRQAPGKGLEWVTFISHEGSNKYYADSVKGRFTISRDNSKNTLYLQMNSLRAEDTAVYYCARTFEYSSSSATGDFDYWGQGTLVTVSS VL: QSVLTQPPSVSGAPGQRVTISCTGSSSNIGAGYDVHWYQQLPGTAPKLLIYGNSNRPSGVPDRFSGSKSGTSASLAITGLQAEDEADYYCQSYDSSLSGVVFGGGTKLTVL
MEASUREMENT: 32.2
//
BINDER: antibody 476 (antibody, V domains shown) VH: QVQLVQSGSELKKPGASVKVSCKASGYTFTSYAMNWVRQAPGQGLEWMGWINTNTGNPTYAQGFTGRFVFSLDTSVSTAYLQISSLKAEDTGVYYCARDHELPNSSSWFGHFEYWGQGTLVTVSS VL: SYELTQPPSVSVSPGQTARITCSGDALPKQYAYWYQQKAGQAPVLVIYKDSERRSGIPERFSGSSSGTTVTLTISGVQAEDEADYYCQSADSSGTSVVFGGGTKLTVL
MEASUREMENT: 18.2
//
BINDER: antibody 450 (antibody, V domains shown) VH: EVQLVESGGGLVQPGGSLRLSCAASEFTFSSYWMSWVRQAPGKGLEWVANIKQDGSEKYYVDSVKGRFTISRDNAKNSLYLQMNSLRAEDTAVYYCARVGEYSGYDLFFDYWGQGTLVTVSS VL: NFMLTQPHSVSESPGKTVTISYTGSSGSIASNYVQWYQQRPGSAPTTVIYEDNQRPSGVPDRFSGSIDSSSNSASLTISGLKTEDEADYYCQSYDSSNQGVFGGGTKLTVL
MEASUREMENT: 0.85

Please find the next binder below.
Task: Request the reported median fluorescence intensity, fold over isotype control associated with antibody 446 (antibody, V domains shown) VH: QVQLVESGGGVVQPGRSLRLSCAASGFTFSSYAMHWVRQAPGKGLEWVAVISYDGSNKYYADSVKGRFTISRDNSKNTLYLQMNSLRAEDTAVYYCARPNSGSYFGYFQHWGQGTLVTVSS VL: QSVLTQPPSVSGAPGQRVTISCTGSSSNIGAGYDVHWYQQLPGTAPKLLIYGNSNRPSGVPDRFSGSKSGTSASLAITGLQAEDEADYYCQSYDSSLSGFYVFGTGTKVTVL
Output: 7.99
